- Test system: Vero E6
- protocol_details: cell viability relative to DMSO; higher = less toxic
- details: 72 h; 10 nM
measurement_name: cell viability

COc1ccc(Cl)c(Nc2ncnc3cc(OCC4CCN(C)CC4)c(OC)cc23)c1 | 99.3%

Value of measured cell viability for the entry COC(=O)N1CC[C@@H]2[C@H]1CCC[C@@]2(O)C#Cc1cccc(C)c1 : 101%

Sure, the documented cell viability for O=C1NC(=O)c2c1c1c3ccccc3[nH]c1c1[nH]c3ccccc3c21 is 103%

According to the records, this compound COc1cc(NC(=O)c2ccc(-c3ccc(Cl)cc3)o2)cc(OC)c1 displays cell viability of 101%

What the record says about CCn1cc(C(=O)O)c(=O)c2cc(F)c(N3CCNC(C)C3)c(F)c21 (configuration not stated) : cell viability is 103%

Lab book: cell viability of Cc1cc(C(C)(C)C)c(O)c(C)c1CC1=NCCN1 noted as 106%

get_value(item= CC1=C(/C=C/C(C)=C/C=C/C(C)=C/C=C/C=C(C)/C=C/C=C(C)/C=C/C2=C(C)CCCC2(C)C)C(C)(C)CCC1 , readout=cell viability) returns 102%

Lab note: COc1ccccc1OC(=O)C(C)c1ccc(CC(C)C)cc1 (configuration not stated) [metoxibutropate] gave cell viability of 102%

cell viability in this record for CCOC(=O)c1cc(C#N)c(N2CCC(C(=O)NS(=O)(=O)Cc3ccccc3)CC2)nc1C : 106%

Please fill in: cell viability reported for COc1cc(C(=O)OCCCN2CCCN(CCCOC(=O)c3cc(OC)c(OC)c(OC)c3)CC2)cc(OC)c1OC = 97.3%

Entry CC(C)(C)C(=O)CN1C(=O)[C@H](NC(=O)Nc2cccc(C(=O)O)c2)CN(C2CCCCC2)c2ccccc21 [nastorazepide] ; cell viability = 105%

Recorded cell viability (compound CC(C)c1nc(N(C)S(C)(=O)=O)nc(-c2ccc(F)cc2)c1/C=C/[C@@H](O)C[C@@H](O)CC(=O)O ): 97.9%

* * *

- Test system: Vero E6
- protocol_details: cell viability relative to DMSO; higher = less toxic
- details: 72 h; 1000 nM
Below: a set of entries, each annotated with reported cell viability.
// return numeric value only (unit: %, not printed)

For orientation, consider the following solved cases.
O=C(NC1(c2ccccc2)CC1)c1c(CN2CCC(N3CCCCC3)CC2)c(-c2cccc(C(F)(F)F)c2)nc2cc(Br)ccc12 | 99.3
CS(=O)(=O)CCNCc1ccc(-c2ccc3ncnc(Nc4ccc(OCc5cccc(F)c5)c(Cl)c4)c3c2)o1 [lapatinib] | 74.6
Cc1cc2nc3c(=O)[nH]c(=O)nc-3n(C[C@H](O)[C@H](O)[C@H](O)COP(=O)(O)O)c2cc1C [riboflavin-5-phosphate-sodium] | 95.7
Cc1cc(C)c(NC(=O)C2CC3CCC2C3)c(C)c1 (stereo not drawn) [ML-213] | 90.3
CCn1cc(C(=O)O)c(=O)c2cc(F)c(N3CCNC(C)C3)c(F)c21 (stereo not drawn) [lomefloxacin] | 106
O=C(c1c2ccccc2cc2ccccc12)N1CCC(N2CCC[C@@H](C(=O)N3CCOCC3)C2)CC1 | 89.7
CCC1(C)CC(=O)NC1=O (stereo not drawn) [ethosuximide] | 103

Below: the item to evaluate.
Log: Vero E6, compound CNC(=N)NC(=O)Nc1c(C)cccc1C [lidamidine] , cell viability = 102

Cited source: the supplement of paper PMC13380429
